# Tested on: Rattus norvegicus
# PROTOCOL TEXT: Anticongestive heart failure activity in Rattus norvegicus (rat) assessed as blood pressure at 50 mg/kg, intraduodenal measured at 20 min by tracheal intubation method (reference value: 81 +/- 4 mmHg)
# Type: functional, Artery
Criterion: Activity meeting or surpassing 40 mmHg. Met: True. Not met: False.

{"STRUCTURE SMILES STRING": "C[C@@H]1CC(=O)NN=C1c1ccc(/N=C/c2ccco2)cc1", "LABEL VALUE": "False"}
{"STRUCTURE SMILES STRING": "C[C@@H]1CC(=O)NN=C1c1ccc(/N=C/c2cccc([N+](=O)[O-])c2)cc1", "LABEL VALUE": "True"}
{"STRUCTURE SMILES STRING": "C[C@@H]1CC(=O)NN=C1c1ccc(/N=C/c2ccc(O)c(O)c2)cc1", "LABEL VALUE": "True"}
{"STRUCTURE SMILES STRING": "C[C@@H]1CC(=O)NN=C1c1ccc(/N=C/c2ccc(O)cc2)cc1", "LABEL VALUE": "False"}
{"STRUCTURE SMILES STRING": "C[C@@H]1CC(=O)NN=C1c1ccc(NN=C(C#N)C#N)cc1", "LABEL VALUE": "False"}
{"STRUCTURE SMILES STRING": "C[C@@H]1CC(=O)NN=C1c1ccc(/N=C/c2ccc([N+](=O)[O-])cc2)cc1", "LABEL VALUE": "False"}

###

Activity reference
# System: Rattus norvegicus
# PROTOCOL TEXT: Anticongestive heart failure activity in Rattus norvegicus (rat) assessed as blood pressure at 50 mg/kg, intraduodenal measured at 20 min by tracheal intubation method (reference value: 81 +/- 4 mmHg)
# Format: functional, Artery
EXPERIMENTAL READOUT: Activity

{"STRUCTURE SMILES STRING": "COc1cc(/C=N/c2ccc(C3=NNC(=O)C[C@H]3C)cc2)cc(OC)c1OC", "EXPERIMENTAL READOUT": "Activity", "REPORTED": "28 mmHg"}
{"STRUCTURE SMILES STRING": "C[C@@H]1CC(=O)NN=C1c1ccc(/N=C/c2ccc(Cl)c(Cl)c2)cc1", "EXPERIMENTAL READOUT": "Activity", "REPORTED": "24 mmHg"}
{"STRUCTURE SMILES STRING": "C[C@@H]1CC(=O)NN=C1c1ccc(/N=C/c2ccccc2O)cc1", "EXPERIMENTAL READOUT": "Activity", "REPORTED": "26 mmHg"}
{"STRUCTURE SMILES STRING": "C[C@@H]1CC(=O)NN=C1c1ccc(/N=C/c2ccccc2Cl)cc1", "EXPERIMENTAL READOUT": "Activity", "REPORTED": "34 mmHg"}
{"STRUCTURE SMILES STRING": "C[C@@H]1CC(=O)NN=C1c1ccc(/N=C/c2ccccn2)cc1", "EXPERIMENTAL READOUT": "Activity", "REPORTED": "30 mmHg"}
